Data origin: ChEMBL document CHEMBL4431304

system: MCF7; experiment: Cytotoxicity against human MCF7 cells assessed as reduction in cell viability after 48 hrs by MTT assay; format: functional, cell-based; settings: MCF7, 48 h

- Structure: "C1C[C@H]2CC[C@H]3N4CCCC[C@H]4[C@@H]4CCCN5C[C@@H](C1)[C@H]2N3[C@@H]45"
  Tested target: "MCF7"
  IC50: "> 10 µM"
- Structure: "O=C1[C@H]2CCC[C@H]3CC[C@H]4N5CCCC[C@H]5[C@@H]5CCCN1[C@H]5N4[C@@H]32"
  Tested target: "MCF7"
  IC50: "> 10 µM"
- Structure: "N#C[C@@H]1N2CCC[C@H]3[C@@H]4CCCCN4[C@@H]4CC[C@H]5CCC[C@]1(O)[C@@H]5N4[C@@H]32"
  Tested target: "MCF7"
  IC50: "> 10 µM"
